// data source = the supplement of paper PMC10567573

B1: FBF1 (parent)
chain: QLQCSPAELQAELLHSQARLAELE

variants of: B1; assay: protein stability index of a GFP-peptide fusion (GPS, HEK-293T) (PSI 1-6); higher = more stable; conditions: c terminus: a fixed tail appended;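 note: lentivirally expressed fusions sorted by FACS into six bins by GFP to DsRed ratio, PSI derived from sequencing read proportions per bin multiplied by bin number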
observable: protein stability index
Give bare numbers.

Answered cases to consult:
entry_sequence="QLQCSPAEGQAELLHSQARLAELE [L9G]" reported_value=4.96
entry_sequence="QLQCSPAQLQAELLHSQARLAELE [E8Q]" reported_value=2.67
entry_sequence="QLQTSPAELQAELLHSQARLAELE [C4T]" reported_value=3.49
entry_sequence="QLQCSPLELQAELLHSQARLAELE [A7L]" reported_value=2.37
entry_sequence="QLQCSPAELQAELLHSQARLAEIE [L23I]" reported_value=2.59

List the reported protein stability index of each variant below.
1. QLQCSPAELQAELLHIQARLAELE [S16I]
2. QLQCSPAELQIELLHSQARLAELE [A11I]
3. QLQCSPAELQYELLHSQARLAELE [A11Y]
4. QLQCSPASLQAELLHSQARLAELE [E8S]
5. QLQCSPAELQAELLHSQARLAELL [E24L]
6. QLQCSAAELQAELLHSQARLAELE [P6A]

Data returned:
[2.81, 2.24, 2.3, 2.17, 2.41, 2.85]
